In this section, each of the molecules is paired with its reported Z-Ave D.
- Method summary: DLS particle size and PDI of drugs milled with F127 or SDS (Example 6)
- Format: physicochemical
- Test settings: drug milled with stabilizer F127
Metric name: Z-Ave D

| Molecule | Result value |
| --- | --- |
| CCC(=O)O[C@]1(C(=O)SCF)[C@H](C)C[C@H]2[C@@H]3C[C@H](F)C4=CC(=O)C=C[C@]4(C)[C@@]3(F)[C@@H](O)C[C@@]21C [Fluticasone propionate] | 203 nm |
| CCOC(=O)O[C@]1(C(=O)OCCl)CC[C@H]2[C@@H]3CCC4=CC(=O)C=C[C@]4(C)[C@H]3[C@@H](O)C[C@@]21C [Loteprednol etabonate] | 241 nm |
| C[C@]12C=CC(=O)C=C1CC[C@@H]1[C@@H]2[C@@H](O)C[C@@]2(C)[C@H]1CC[C@]2(O)C(=O)CO | 273 nm |
| NS(=O)(=O)c1cc(C(=O)O)c(NCc2ccco2)cc1Cl [Furosemide] | 217 nm |
| COc1ccc2c(c1)c(CC(=O)O)c(C)n2C(=O)c1ccc(Cl)cc1 | 225 nm |
